Recorded koff values for a group of binders are listed next.
Molecular target: Recombinant human his-tagged IGF R extracellular domain protein (human) (UniProt P08069)
Assay: SPR, Ab captured via anti-huIgG Fc, pH 7.4
Just the number in s⁻¹, nothing appended.

{"binder": "VRDN-02029 (antibody, V domains shown) VH: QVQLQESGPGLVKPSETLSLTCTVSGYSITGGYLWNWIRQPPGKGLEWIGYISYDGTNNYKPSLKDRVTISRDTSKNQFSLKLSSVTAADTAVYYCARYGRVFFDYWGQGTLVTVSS VL: DIVMTQSPLSLPVTPGEPASISCHSSQSIVHSNGNTYLQWYLQKPGQSPQLLIYKVSNRLYGVPDRFSGSGSGTDFTLKISRVEAEDVGVYYCFQGSHVPWTFGQGTKVEIK", "displayUnit": "s⁻¹", "koff": "5.53e-05"}

Query binder follows.
Please fill in: koff reported for VRDN-02033 (antibody, V domains shown) VH: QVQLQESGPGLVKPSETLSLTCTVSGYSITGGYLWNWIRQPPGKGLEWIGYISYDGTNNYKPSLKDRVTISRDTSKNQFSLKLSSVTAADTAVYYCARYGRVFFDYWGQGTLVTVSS VL: DIVMTQSPLSLPVTPGEPASISCRSSQHIVHSNGNTYLQWYLQKPGQSPQLLIYKVSNRLYGVPDRFSGSGSGTDFTLKISRVEAEDVGVYYCFQGSHVPWTFGQGTKVEIK = 8.1e-05
